# SYSTEM_TESTED: Rap guanine nucleotide exchange factor 3 (Homo sapiens)
# METHOD_NOTES: Counterscreen qHTS for antagonist of cAMP-regulated guanine nucleotide exchange factor 3 (EPAC1) (AID 1645888);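 further: fluorescence loss as bound BODIPY-GDP is released from Rap1B; % of control where 0% means no effect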
# STUDY_CONDITIONS: Rap1B-BODIPY-GDP nucleotide exchange, fluorescence; series mostly up to 154 µM
Inconclusive results are not listed. Activity calls are given as the source filed them. The call rests on the fitted dose curve; in most records, active means well fitted inhibition curve with a large enough effect; inconclusive means small, poorly fitted or top-dose-only effect; inactive means no such curve, though single readings can be large or run the other way.
MEASUREMENT_KIND: activity change, negative = inhibition

Past entries and their recorded results:
COc1ccc2ccccc2c1C(O)c1nccn1C (centres undefined)    inactive
Cc1ccn2c(=O)nc(SCC(=O)Nc3ccc4c(c3)OCO4)nc2c1    inactive
CCOc1ccc(C(=O)N2CC(=O)Nc3ccc(C)cc3C2c2ccc(F)cc2)cc1OCC (centres undefined)    inactive
Cc1cc(C)c2cccc(N)c2n1    8.48% [at 30.8 µM] (inactive)
CC(C)C(=O)NC(c1ccccc1)c1cc([N+](=O)[O-])c2cccnc2c1O (centres undefined)    -3.56% [at 30.8 µM] (inactive)
COc1ccc(S(=O)(=O)Nc2cc(SCC(=O)O)c(O)c3ccccc23)cc1    inactive

Ask | Which activity change, negative = inhibition value belongs to Cc1ccc(-c2ccc(CN3C(C(C)C)C(=O)N(Cc4cn(CCC5OCCO5)nn4)CCS3(=O)=O)cc2)c(C)c1 (centres undefined) ?
Reply | inactive

* * *

# SYSTEM_TESTED: Rap guanine nucleotide exchange factor 4 (Homo sapiens) (UniProt Q8WZA2)
# Sequence (Q8WZA2 whole entry, looked up): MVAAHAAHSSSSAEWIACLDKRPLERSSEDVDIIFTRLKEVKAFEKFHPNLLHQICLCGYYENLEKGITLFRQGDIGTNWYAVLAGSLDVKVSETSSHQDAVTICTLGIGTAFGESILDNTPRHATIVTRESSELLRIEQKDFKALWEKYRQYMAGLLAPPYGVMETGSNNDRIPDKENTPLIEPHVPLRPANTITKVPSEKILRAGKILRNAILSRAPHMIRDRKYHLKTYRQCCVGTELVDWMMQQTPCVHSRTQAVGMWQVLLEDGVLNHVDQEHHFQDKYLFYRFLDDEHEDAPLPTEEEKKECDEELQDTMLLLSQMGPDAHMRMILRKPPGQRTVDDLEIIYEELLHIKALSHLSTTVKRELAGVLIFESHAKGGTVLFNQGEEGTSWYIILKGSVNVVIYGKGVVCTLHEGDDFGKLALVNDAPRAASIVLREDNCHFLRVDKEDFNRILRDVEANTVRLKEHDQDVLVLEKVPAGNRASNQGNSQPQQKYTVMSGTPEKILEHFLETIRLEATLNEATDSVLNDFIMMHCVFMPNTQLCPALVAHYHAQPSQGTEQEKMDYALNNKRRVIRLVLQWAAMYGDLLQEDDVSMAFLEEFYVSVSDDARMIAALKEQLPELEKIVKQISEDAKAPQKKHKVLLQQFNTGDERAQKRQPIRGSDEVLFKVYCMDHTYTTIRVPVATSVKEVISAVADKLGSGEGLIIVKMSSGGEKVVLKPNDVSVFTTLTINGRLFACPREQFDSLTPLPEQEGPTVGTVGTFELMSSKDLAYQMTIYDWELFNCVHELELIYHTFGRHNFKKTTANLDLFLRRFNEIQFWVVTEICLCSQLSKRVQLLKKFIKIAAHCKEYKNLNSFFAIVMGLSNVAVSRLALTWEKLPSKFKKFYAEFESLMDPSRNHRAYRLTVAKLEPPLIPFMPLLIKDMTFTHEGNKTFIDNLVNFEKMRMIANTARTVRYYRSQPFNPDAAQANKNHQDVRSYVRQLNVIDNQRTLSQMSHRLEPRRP
# METHOD_NOTES: Confirmatory qHTS for antagonist of cAMP-regulated guanine nucleotide exchange factor 4 (EPAC2) (AID 1645885); further: nearly all actives have a fitted effect of over 25% in size
# STUDY_CONDITIONS: EPAC2 Rap1B-BODIPY-GDP exchange fluorescence, biochemical; series mostly up to 12.7 µM
Results filed as inconclusive are left out. The source made the active and inactive calls. Calls follow the shape of the dose curve; as a rule, active = well fitted inhibition curve with a large enough effect; inconclusive = small, poorly fitted or top-dose-only effect; inactive = no such curve, though single readings can be large or run the other way.
One label from this list, please: t for active, f for inactive

Examples with answers:
Cc1occc1C(=O)N/N=C/C1=C(N2CCOCC2)C(=C/c2ccc(Cl)cc2Cl)/CC1    f
CC1CCN(c2ccc3c(c2)S(=O)(=O)c2cccc(C(=O)NCc4cccc(F)c4)c2C3=O)CC1    f

Ask | Lab log entry: O=S(=O)(Nc1ccccc1N1CCCCC1)c1cccs1 — outcome as called in the assay?
Reply | t

Ask | One more compound: C[C@@H]1CC=C[C@H]2[C@H]1C(=O)N(Cc1ccccc1)[C@H]2c1ccc(C(F)(F)F)cc1
Reply | f

Ask | Check O=C(COc1ccc(Cl)cc1)NC1=NN(c2ccccc2)C(=O)C1 too.
Reply | f

Ask | Again, but for C=C1CCC(O)C/C1=C\C=C1/CCCC2(C)C1CCC2C(C)CCCC(C)C (centres undefined)
Reply | t

Ask | Next: O=c1cc(-c2c(O)c3ccccc3n(Cc3ccccc3)c2=O)[nH][nH]1
Reply | f

* * *

# SYSTEM_TESTED: Rap guanine nucleotide exchange factor 3 (Homo sapiens) (UniProt O95398)
# Sequence (O95398 whole entry, looked up): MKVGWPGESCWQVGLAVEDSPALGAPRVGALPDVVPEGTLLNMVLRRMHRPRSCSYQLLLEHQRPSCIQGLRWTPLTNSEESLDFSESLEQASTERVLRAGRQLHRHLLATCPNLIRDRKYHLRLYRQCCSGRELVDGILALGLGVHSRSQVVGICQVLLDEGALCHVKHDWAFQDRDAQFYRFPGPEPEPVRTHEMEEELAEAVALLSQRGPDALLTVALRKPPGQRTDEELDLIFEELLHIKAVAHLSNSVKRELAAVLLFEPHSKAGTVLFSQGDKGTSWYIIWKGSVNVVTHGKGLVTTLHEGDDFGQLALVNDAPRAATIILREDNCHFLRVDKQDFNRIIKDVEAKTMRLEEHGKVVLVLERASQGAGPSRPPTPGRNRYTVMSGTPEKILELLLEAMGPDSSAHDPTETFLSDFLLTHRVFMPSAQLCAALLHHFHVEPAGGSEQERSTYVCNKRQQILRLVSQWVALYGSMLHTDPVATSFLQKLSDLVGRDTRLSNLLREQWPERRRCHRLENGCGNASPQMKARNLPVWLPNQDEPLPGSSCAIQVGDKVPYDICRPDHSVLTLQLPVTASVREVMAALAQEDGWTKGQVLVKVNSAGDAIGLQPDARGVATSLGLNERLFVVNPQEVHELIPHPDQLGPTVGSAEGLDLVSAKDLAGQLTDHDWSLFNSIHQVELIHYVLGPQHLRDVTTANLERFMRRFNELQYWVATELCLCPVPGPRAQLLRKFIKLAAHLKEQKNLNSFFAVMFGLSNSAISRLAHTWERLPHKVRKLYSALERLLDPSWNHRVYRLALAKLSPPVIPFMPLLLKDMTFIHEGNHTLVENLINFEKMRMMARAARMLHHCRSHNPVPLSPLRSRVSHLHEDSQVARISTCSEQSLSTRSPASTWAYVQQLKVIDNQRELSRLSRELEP
# METHOD_NOTES: Counterscreen qHTS for agonist of cAMP-regulated guanine nucleotide exchange factor 3 (EPAC1) (AID 1645889); further: % of control where 0% means no effect; nearly all actives have a fitted effect of over 40% in size
# STUDY_CONDITIONS: EPAC1 Rap1B-BODIPY-GDP exchange, fluorescence; series mostly up to 154 µM
Results filed as inconclusive are left out. Active and inactive are the calls of the source. Calls come from the whole dose curve; as a rule, active = well fitted activation curve with a large enough effect; inconclusive = small, poorly fitted or top-dose-only effect, or another doubt; inactive = no such curve, though single readings can be large or run the other way.
MEASUREMENT_KIND: activation

Cc1ccc(C(=O)Nc2ccccc2[N+](=O)[O-])cc1S(=O)(=O)N1CCOCC1    inactive
O=C(N/N=C/c1cc(Cl)c(O)c(Cl)c1)c1cc2c(ccc3ccccc32)o1    inactive
COc1cc(/C=C2\SC(=S)N(CC(=O)O)C2=O)ccc1OS(=O)(=O)c1ccc(C)cc1    inactive
COc1ccccc1/C=C1\SC(=S)N(CCC(=O)Nc2ccc(C(=O)O)c(O)c2)C1=O    10.4% [at 30.8 µM] (inactive)
